- system name: T1, monovalent hVISTA-ECD (human VISTA extracellular domain with His tail) (human, UniProt Q9H7M9 33-193)
- T1 construct: analyte flowed over captured antibody; also called huVISTA-His
- T1 sequence (Q9H7M9 other isoform, or with tags, fused parts or gaps limits assumed): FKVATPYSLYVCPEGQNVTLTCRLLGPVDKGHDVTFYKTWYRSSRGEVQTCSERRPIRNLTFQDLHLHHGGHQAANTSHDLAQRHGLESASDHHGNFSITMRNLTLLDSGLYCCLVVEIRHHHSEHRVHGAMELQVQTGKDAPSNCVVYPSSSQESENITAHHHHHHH
- test protocol: SPR
endpoint name: pH 6.0/7.4 kd

Guide cases for pH 6.0/7.4 kd, answers given:
binder	pH 6.0/7.4 kd
P1-064510 (41F11_Vk_A25E/V29D/A64G/R91T) (antibody, V domains shown, also called P1-064510-1) VH: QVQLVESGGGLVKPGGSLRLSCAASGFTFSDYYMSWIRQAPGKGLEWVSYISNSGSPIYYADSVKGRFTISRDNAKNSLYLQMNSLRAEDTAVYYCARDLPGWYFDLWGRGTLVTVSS VL: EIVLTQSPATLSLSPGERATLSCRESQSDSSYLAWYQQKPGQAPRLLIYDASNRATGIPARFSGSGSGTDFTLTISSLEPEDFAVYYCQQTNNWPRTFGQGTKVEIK	4.8
P1-063001 (41F11_LC_Mutant: V29D/A64G/R91T) (antibody, V domains shown, also called P1-063001-5; P1-063001-6) VH: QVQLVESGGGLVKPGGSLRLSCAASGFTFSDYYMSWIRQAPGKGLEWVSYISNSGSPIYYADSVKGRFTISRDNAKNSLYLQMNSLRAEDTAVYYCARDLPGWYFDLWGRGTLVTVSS VL: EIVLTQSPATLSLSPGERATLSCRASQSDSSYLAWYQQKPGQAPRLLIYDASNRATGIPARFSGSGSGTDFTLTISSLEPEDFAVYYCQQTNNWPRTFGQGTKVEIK	10.2

# input for lookup
query: Could you tell me which pH 6.0/7.4 kd is on file for P1-065064 (41F11_LC_Mutant: V29D/A64G/R91T) (antibody, V domains shown, Same printed description as P1-063001 under another ID; also called P1-065064-1) VH: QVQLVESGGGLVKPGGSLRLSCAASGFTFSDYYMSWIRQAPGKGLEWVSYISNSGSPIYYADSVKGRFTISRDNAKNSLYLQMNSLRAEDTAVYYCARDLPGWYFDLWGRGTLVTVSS VL: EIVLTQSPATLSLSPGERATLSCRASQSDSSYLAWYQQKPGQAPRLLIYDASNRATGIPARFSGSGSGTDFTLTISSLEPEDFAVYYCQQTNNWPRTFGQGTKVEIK ?
result: 11.2
